experiment: Stability in simulated intestinal fluid; type: in vitro ADME; details: 2 μM, 37° C., pH 7.5
Where a SMILES comes first, the peptide text is derived from it. [ ]: non-standard residue; d: D form. ξ: configuration not given here. ξαMeBip(2'-Et,4'-OMe) = CCc1cc(OC)ccc1-c1ccc(CC(C)(N)C(=O)O)cc1; ξαMePhe(2,6-F2) = CC(N)(Cc1c(F)cccc1F)C(=O)O; ξαMe(hhPhe) = CC(N)(CCCc1ccccc1)C(=O)O; ξαMePhe(2-F) = CC(N)(Cc1ccccc1F)C(=O)O; ξhhPhe = NC(CCCc1ccccc1)C(=O)O; ξαMeD = CC(N)(CC(=O)O)C(=O)O; Aib = CC(C)(N)C(=O)O
measured_endpoint: half-life (t1/2) in simulated intestinal fluid

# compound, result
records = [
    ("CCc1cc(OC)ccc1-c1ccc(CC(C)(NC(=O)[C@H](CC(=O)O)NC(=O)[C@H](CO)NC(=O)[C@@H](NC(=O)C(C)(Cc2c(F)cccc2F)NC(=O)[C@@H](NC(=O)CNC(=O)[C@H](CCC(=O)O)NC(=O)C(C)(C)NC(=O)[C@H](Cc2c[nH]cn2)NC(=O)[C@@H](N)C(C)C)[C@@H](C)O)[C@@H](C)O)C(=O)NC(CCCc2ccccc2)C(N)=O)cc1 (some centres unmarked) [compound 31] (H-VH[Aib]EGT[ξαMePhe(2,6-F2)]TSD[ξαMeBip(2'-Et,4'-OMe)][ξhhPhe]-NH2)", "(6) h"),
    ("CCc1cc(OC)ccc1-c1ccc(CC(C)(NC(=O)C(C)(CC(=O)O)NC(=O)[C@H](CO)NC(=O)[C@@H](NC(=O)C(C)(Cc2ccccc2F)NC(=O)[C@@H](NC(=O)CNC(=O)[C@H](CCC(N)=O)NC(=O)C(C)(C)NC(=O)[C@H](Cc2c[nH]cn2)NC(=O)[C@@H](N)C(C)C)[C@@H](C)O)[C@@H](C)O)C(=O)NC(C)(CCCc2ccccc2)C(N)=O)cc1 (some centres unmarked) [compound 191] (H-VH[Aib]QGT[ξαMePhe(2-F)]TS[ξαMeD][ξαMeBip(2'-Et,4'-OMe)][ξαMe(hhPhe)]-NH2)", "(6) h"),
]
